Parameter: viability at 48 h, 10 µM. Scope: all listed entries.
experiment: Cytotoxicity against mouse RAW264.7 cells assessed as cell viability at 10 uM after 48 hrs by MTT assay (reference value: 100%); type: cell-based; details: read-out: Activity
Observation type: viability at 48 h, 10 µM (%)

Mol smiles	Unit string	Value observed
CC1=C[C@H](O/C=C2/C(=O)O[C@@H]3c4ccccc4C[C@H]23)OC1=O	%	100
C[C@@H]1C[C@H]2[C@@H]3CCC4=CC(=O)C=C[C@]4(C)[C@@]3(F)[C@@H](O)C[C@]2(C)[C@@]1(O)C(=O)CO	%	100
CC1=C[C@@H](O/C=C2/C(=O)O[C@H]3c4ccccc4C[C@@H]23)OC1=O	%	99.2

meta.source: ChEMBL document CHEMBL4257465
